- Experimental system: α1D-AR (Homo sapiens, UniProt P25100)
- Construct: expressed in transfected cells; host or cells: HEK293
- Sequence (P25100 1-572): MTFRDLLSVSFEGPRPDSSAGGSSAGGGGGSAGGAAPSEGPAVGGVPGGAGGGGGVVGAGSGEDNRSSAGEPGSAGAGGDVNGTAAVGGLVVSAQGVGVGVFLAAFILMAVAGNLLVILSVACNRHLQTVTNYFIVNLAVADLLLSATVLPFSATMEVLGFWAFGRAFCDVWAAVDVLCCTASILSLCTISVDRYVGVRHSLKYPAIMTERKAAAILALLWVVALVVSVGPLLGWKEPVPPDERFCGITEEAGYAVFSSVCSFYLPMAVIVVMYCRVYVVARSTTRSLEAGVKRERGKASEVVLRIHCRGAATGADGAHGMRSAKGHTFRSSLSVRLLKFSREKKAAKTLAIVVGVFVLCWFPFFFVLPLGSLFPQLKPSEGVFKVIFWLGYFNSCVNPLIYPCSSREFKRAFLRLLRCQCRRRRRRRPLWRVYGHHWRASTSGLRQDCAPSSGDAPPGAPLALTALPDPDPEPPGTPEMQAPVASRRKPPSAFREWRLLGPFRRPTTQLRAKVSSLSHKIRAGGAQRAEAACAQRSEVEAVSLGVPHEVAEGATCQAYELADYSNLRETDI
- Test protocol: Calcium mobilization (Fluo-4) antagonism of phenylephrine in HEK293 cells expressing α1D-AR/Gα16
- Format: cell-based
- Condition: phenylephrine 30 nM
Property name: IC50 (nM)
Numeric only. Scale: nM

State IC50 (α1D-AR (Homo sapiens, UniProt P25100)) of COc1cc2c(cc1OC)CN1CCc3cc4c(cc3C1C2)OCO4 (stereo not drawn) [DC037012] .
242

Fetch value of IC50 on α1D-AR (Homo sapiens, UniProt P25100) for COc1cc2c(cc1OCc1ccccc1)C[C@H]1c3cc4c(cc3CCN1C2)OCO4 [DC037016] .
191

State recorded IC50 with α1D-AR (Homo sapiens, UniProt P25100), entry CCOc1ccccc1OCCN[C@H](C)Cc1ccc(OC)c(S(N)(=O)=O)c1 [Tamsulosin, reference compound] , no comment.
0.18

GET IC50 | system: α1D-AR (Homo sapiens, UniProt P25100) | item: COc1cc2c(cc1OC)CN1CCc3cc(OC)c(OC)cc3[C@@H]1C2 [DC037003]
2480

Report IC50 on α1D-AR (Homo sapiens, UniProt P25100) for this entry: COc1cc2c(cc1OC)[C@@H]1Cc3cc(C)cc(C)c3CN1CC2 [DC037011]
2640

State IC50 (α1D-AR (Homo sapiens, UniProt P25100)) of COc1cc2c(cc1OC)CN1CCc3cc(OC)c(OC)cc3C1C2 (stereo not drawn) [DC037001] .
8710

Recorded values, source patent US9737517B2.
